target: mouse 11β-HSD1 (Mus musculus); construct: The obtained PCR products of about 0.9 kbp, 1.2 kbp, and 0.9 kbp were subcloned into an expression vector pcDNA3.1+/Zeo; expressed in transfected cells; assay: Enzyme inhibitory activity, mouse 11β-HSD1 (lysate of stably expressing CHO-K1 cells, cortisol by competitive ELISA); format: biochemical; conditions: Table 2; mouse 11β-HSD1, cell lysate, 37° C. for 1 hour; read-out: m HSD1 in vitro assay (IC50 uM)
Label key: condition met means IC50 under 0.2 µM; condition not met means IC50 of 0.2 µM or more.

Query block: IC50 strictly < 0.2 µM for this molecule? Cc1ccc(C(=O)N2N(C3C4CC5CC(C4)CC3C5)C(=O)C2(C)C)cc1 (stereo not shown) [Example 114]
Result block: condition met

Query block: API: query returns whether the molecule falls strictly under 0.2 µM in IC50. Query: CC1(C)C(=O)N(C2C3CC4CC(C3)CC2C4)N1Cc1ccc(F)c(F)c1 (stereo not shown) [Example 16]
Result block: condition met

Query block: Hello, is IC50 of the following molecule strictly smaller than 0.2 µM? CC1(C)C(=O)N([C@H]2C3CC4CC2C[C@@](Cl)(C4)C3)N1c1cccc2ccccc12 [Example 257]
Result block: condition not met

Query block: Quick check: IC50 of CC1(C)C(=O)N(C2C3CC4CC(C3)CC2C4)N1c1cccc2ccccc12 (stereo not shown) [Example 212] under 0.2 µM?
Result block: condition met

Query block: Strictly below 0.2 µM: is that where IC50 of CC1(C)C(=O)N(C2C3CC4CC(C3)CC2C4)N1Cc1ccccc1C(F)(F)F (stereo not shown) [Example 42] sits?
Result block: condition not met

Query block: Criterion: IC50 strictly below 0.2 µM. Is it met by CC1(C)C(=O)N(C2C3CC4CC(C3)CC2C4)N1Cc1ccc(Br)cc1 (stereo not shown) [Example 53] ?
Result block: condition met

====

molecular target: mouse 11β-HSD1 (Mus musculus); construct: The obtained PCR products of about 0.9 kbp, 1.2 kbp, and 0.9 kbp were subcloned into an expression vector pcDNA3.1+/Zeo; expressed in transfected cells; assay: Enzyme inhibitory activity, mouse 11β-HSD1 (lysate of stably expressing CHO-K1 cells, cortisol by competitive ELISA); format: biochemical; settings: Table 2; mouse 11β-HSD1, cell lysate, 37° C. for 1 hour; read-out: m HSD1 in vitro assay (IC50 uM)
measuredParameter: IC50 (µM)
Give bare numbers, in µM.

INSERT INTO assay_data (molecule, reportedresult) VALUES
  ('CC1(C)C(=O)N(C2C3CC4CC(C3)CC2C4)N1Cc1cccc2ccccc12 (stereo not drawn) [Example 63]', 0.41),
  ('Cc1cccc(C(=O)N2N(C3C4CC5CC(C4)CC3C5)C(=O)C2(C)C)c1 (stereo not drawn) [Example 109]', 0.2);

API: the following record is the query input.
Query block: Please look up its IC50: CC1(C)C(=O)N([C@H]2C3CC4CC2C[C@](C(N)=O)(C4)C3)N1c1cccc(Cl)c1Cl [Example 277]
Result block: 0.4

====

Please go through the items and note down their IC50.
target: mouse 11β-HSD1 (Mus musculus); construct: The obtained PCR products of about 0.9 kbp, 1.2 kbp, and 0.9 kbp were subcloned into an expression vector pcDNA3.1+/Zeo; expressed in transfected cells; assay: Enzyme inhibitory activity, mouse 11β-HSD1 (lysate of stably expressing CHO-K1 cells, cortisol by competitive ELISA); type: biochemical; conditions: Table 2; mouse 11β-HSD1, cell lysate, 37° C. for 1 hour; read-out: m HSD1 in vitro assay (IC50 uM)
Give bare numbers, in µM.

INSERT INTO measurements (molecule, studytarget, reportedresult) VALUES
  ('CC1(C)C(=O)N(C2CC3CCC2C3)N1Cc1cc(Cl)ccc1Cl (stereo not drawn)', 'mouse 11β-HSD1 (Mus musculus)', 0.39),
  ('Cc1ccccc1CN1N(C2C3CC4CC(C3)CC2C4)C(=O)C1(C)C (stereo not drawn)', 'mouse 11β-HSD1 (Mus musculus)', 0.1);

Query block: Reported IC50, molecule CC1(C)C(=O)N(C2C3CC4CC(C3)CC2C4)N1C(=O)c1ccc(Br)cc1 (stereo not drawn) : ____
Result block: 0.17

====

molecular target: mouse 11β-HSD1 (Mus musculus, UniProt P50172); construct: The obtained PCR products of about 0.9 kbp, 1.2 kbp, and 0.9 kbp were subcloned into an expression vector pcDNA3.1+/Zeo; expressed in transfected cells; experiment: Enzyme inhibitory activity, mouse 11β-HSD1 (lysate of stably expressing CHO-K1 cells, cortisol by competitive ELISA); assay type: biochemical; conditions: Table 2; mouse 11β-HSD1, cell lysate, 37° C. for 1 hour; read-out: m HSD1 in vitro assay (IC50 uM)
Sequence (P50172 whole entry): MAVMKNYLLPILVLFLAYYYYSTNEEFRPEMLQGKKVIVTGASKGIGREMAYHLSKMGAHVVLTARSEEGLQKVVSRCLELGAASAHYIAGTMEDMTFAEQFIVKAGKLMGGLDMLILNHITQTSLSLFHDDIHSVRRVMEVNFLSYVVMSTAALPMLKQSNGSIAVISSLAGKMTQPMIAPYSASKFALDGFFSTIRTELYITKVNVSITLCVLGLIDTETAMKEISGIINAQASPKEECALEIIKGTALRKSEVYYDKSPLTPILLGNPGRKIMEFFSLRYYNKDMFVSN
Assign log10 of IC50 to each entry below.
Plainly stated, the numbers are log10 of IC50 given in µM.

Consider the reported log10 of IC50 for these compounds:
INSERT INTO results (compound, reportedresult) VALUES
  ('Cc1ccccc1C(=O)N1N(C2CCCCCCC2)C(=O)C1(C)C', -0.27),
  ('CC1(C)C(=O)N(C2C3CC4CC(C3)CC2C4)N1Cc1ccc(Cl)cc1 (stereo not shown)', -1.60);

I'm hoping you can list log10 of IC50 for every compound here, please.
1. CC1(C)C(=O)N([C@H]2C3CC4CC2C[C@](O)(C4)C3)N1c1ccccc1Cl
2. Cc1ccc(C)c(CN2N(C3C4CC5CC(C4)CC3C5)C(=O)C2(C)C)c1 (stereo not shown)
3. COc1cccc(N2N(C3C4CC5CC(C4)CC3C5)C(=O)C2(C)C)c1 (stereo not shown)
4. Cc1ccccc1C(=O)N1N(C2C3CC4CC(C3)CC2C4)C(=O)C1(C)C (stereo not shown)
5. CC1(C)C(=O)N(C2C3CC4CC(C3)CC2C4)N1Cc1ccc2ccccc2c1 (stereo not shown)
6. CC1(C)C(=O)N(C2CC3CCC2C3)N1c1cccc2ccccc12 (stereo not shown)
7. Cc1c(F)cccc1CN1N(C2C3CC4CC(C3)CC2C4)C(=O)C1(C)C (stereo not shown)

Result block:
-0.02
-1.28
-0.38
-0.82
-1.39
-1.92
-1.21

For each of the compounds below, state log10 of IC50.
1. CC1(C)C(=O)N([C@H]2C3CC4CC2C[C@](O)(C4)C3)N1c1cccc2ccccc12
2. CC1(C)C(=O)N(C2C3CC4CC(C3)CC2C4)N1Cc1ccc(C(F)(F)F)cc1 (stereo not shown)
3. Cc1cccc(CN2N(C3C4CC5CC(C4)CC3C5)C(=O)C2(C)C)c1 (stereo not shown)
4. CC1(C)C(=O)N(C2C3CC4CC(C3)CC2C4)N1Cc1cccc(Cl)c1F (stereo not shown)

Result block:
[-0.51, -0.68, -1.27, -1.19]

====

biological target: mouse 11β-HSD1 (Mus musculus, UniProt P50172); construct: The obtained PCR products of about 0.9 kbp, 1.2 kbp, and 0.9 kbp were subcloned into an expression vector pcDNA3.1+/Zeo; expressed in transfected cells; experiment: Enzyme inhibitory activity, mouse 11β-HSD1 (lysate of stably expressing CHO-K1 cells, cortisol by competitive ELISA); format: biochemical; details: Table 2; mouse 11β-HSD1, cell lysate, 37° C. for 1 hour; read-out: m HSD1 in vitro assay (IC50 uM)
Could you please classify the records by IC50 using these ranges: low band = under 0.2 µM, middle band = from 0.2 µM up to 0.4 µM, high band = 0.4 µM and over

INSERT INTO results (compound, studytarget, grouplabel) VALUES
  ('CC1(C)C(=O)N(C2C3CC4CC(C3)CC2C4)N1Cc1ccccc1Br (stereo not drawn) [Example 39]', 'mouse 11β-HSD1 (Mus musculus, UniProt P50172)', 'low band'),
  ('CC1(C)C(=O)N([C@H]2C3CC4CC2C[C@@](C(=O)O)(C4)C3)N1c1cccc2ccccc12 [Example 272]', 'mouse 11β-HSD1 (Mus musculus, UniProt P50172)', 'high band'),
  ('CC1(C)C(=O)N(C2C3CC4CC(C3)CC2C4)N1Cc1cccc([N+](=O)[O-])c1 (stereo not drawn) [Example 29]', 'mouse 11β-HSD1 (Mus musculus, UniProt P50172)', 'middle band');

Query block: Input CC1(C)C(=O)N(C2CC3CCC2C3)N1Cc1ccccc1Cl (stereo not drawn) [Example 78] ; output its category
Result block: high band

Query block: Any idea which band COCOc1ccccc1N1N([C@H]2C3CC4CC2C[C@](Cl)(C4)C3)C(=O)C1(C)C [Example 252] is in?
Result block: middle band

Query block: Tag the class for Cc1cccc(N2N(C3C4CC5CC(C4)CC3C5)C(=O)C2(C)C)c1 (stereo not drawn) [Example 193]
Result block: middle band

Query block: State the band of CC1(C)C(=O)N(C2C3CC4CC(C3)CC2C4)N1C(=O)c1cccc(Cl)c1 (stereo not drawn) [Example 128]
Result block: low band

Query block: Which IC50 category applies to CC1(C)C(=O)N(C2C3CC4CC(C3)CC2C4)N1c1ccccc1O (stereo not drawn) [Example 219] here?
Result block: middle band
